B1: ZER1 (parent)
chain: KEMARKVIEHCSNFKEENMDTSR

variants of: B1; experiment: protein stability index of a GFP-peptide fusion (GPS, HEK-293T) (PSI 1-6); higher = more stable; conditions: c terminus: native;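 also: lentivirally expressed fusions sorted by FACS into six bins by GFP to DsRed ratio, PSI derived from sequencing read proportions per bin multiplied by bin number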
quantity_name: protein stability index
Give a plain numeric answer without units written out.

Would you mind telling me what protein stability index value was observed for `M3D` ?
4.86

Would you mind telling me what protein stability index value was observed for `F14T` ?
4.46

Would you mind telling me what protein stability index value was observed for `M19A` ?
3.68

Would you mind telling me what protein stability index value was observed for `N13F` ?
2.49

Would you mind telling me what protein stability index value was observed for `A4I` ?
2.32

Would you mind telling me what protein stability index value was observed for `V7N` ?
5.1

Would you mind telling me what protein stability index value was observed for `S22C` ?
2.4

Would you mind telling me what protein stability index value was observed for `E2C` ?
3.12

Would you mind telling me what protein stability index value was observed for `D20A` ?
1.63

Would you mind telling me what protein stability index value was observed for `E17Q` ?
3.19

Would you mind telling me what protein stability index value was observed for `H10P` ?
5.17

Would you mind telling me what protein stability index value was observed for `M3F` ?
1.72

Would you mind telling me what protein stability index value was observed for `K6E` ?
4.5

Would you mind telling me what protein stability index value was observed for `K15A` ?
3.31

Would you mind telling me what protein stability index value was observed for `S22L` ?
3.58

Would you mind telling me what protein stability index value was observed for `I8L` ?
3.13
